experiment: Pseudomonas biofilm growth suppression – PAO1 strain, BacTiter-Glo luminescence, LB-PBS, primary screen (AID 1144); conditions: P. aeruginosa PAO1 biofilm, 12 h, higher = more signal

- compound: "COCCOC(=O)N1C(=O)[C@@]2(c3cc(C#CC4(O)CCCCCC4)ccc31)[C@H](c1ccc(O)cc1)N1[C@H](c3ccccc3)[C@H](c3ccccc3)OC(=O)[C@H]1[C@@H]2C(=O)N1CCN(c2ncccn2)CC1"
  z-score: -0.127
- compound: "N[C@@H](Cc1ccccc1)C(=O)NCc1cn(Cc2ccccc2)nn1"
  z-score: 0.391
- compound: "CCOC(=O)C[C@H]1[C@H](OC(=O)c2ccc(C(=O)c3ccccc3)cc2)[C@@H](NC(=O)CC(C)C)c2cc(OCCCO)ccc2N1C(=O)c1ccccc1"
  z-score: -0.367
- compound: "O=C(c1ccccc1)N1C(=O)[C@]2(Cc3ccccc31)N=C(c1ccc(OCCCO)cc1)O[C@@H]2c1ccccc1"
  z-score: -0.378
- compound: "O[C@@H](Cc1ccccc1)[C@@H](/C=C/C1CC1)N(CC#Cc1ccccc1)Cc1ccccc1Br"
  z-score: 0.357
- compound: "C=CCC(OC(C)=O)[C@@H]1[C@@H](N(Cc2cccc3ccccc23)C(=O)Cc2ccc(OC)cc2)c2cc(OCCCO)ccc2N1C(=O)c1ccc(-c2ccccc2)cc1 (stereo not given in full)"
  z-score: 1.16
- compound: "CCCC#C[Si](O[C@H](CC)c1cn([C@H](C)c2ccccc2)nn1)(C(C)C)C(C)C"
  z-score: -0.616
- compound: "COc1ccc(CCNC(=O)[C@@]2(Sc3ccc(C)cc3)CC(=O)N(Cc3ccccc3C(F)(F)F)[C@@H]2c2ccc(CO)cc2I)cc1"
  z-score: 1.02
- compound: "CCCC=C(CCC)[C@@H](NC(=O)c1cccs1)c1ccc(C(=O)OC)cc1"
  z-score: -0.473
- compound: "CCCC[C@@H](O)C1=C(COc2ccccc2)C[C@H]2C(=O)N(Cc3ccccc3)C(=O)[C@H]2[C@H]1CO"
  z-score: 0.436
- compound: "O=C(Cc1ccccc1)[C@H]1C2C=CCCC(c3ccccc3)=C2CN1Cc1ccccc1 (stereo not given in full)"
  z-score: -0.886
- compound: "CCOC(=O)C1=C[C@@H](c2ccccc2)N(S(=O)(=O)c2ccc(C)cc2)[C@H]1c1ccc(OC)cc1"
  z-score: 0.173
- compound: "COCCCNC(=O)[C@@]1(Sc2ccc(C)cc2)CC(=O)N(C2Cc3ccccc3C2)[C@@H]1c1ccc(CO)cc1"
  z-score: -1.03
- compound: "COc1ccc([Si](C)(C)[C@@H]2[C@@H](CCO)O[C@]3(C(=O)N(Cc4ccccc4)c4ccc(NC(=O)[C@H](C)O)cc43)[C@H]2C)cc1"
  z-score: -1.07
- compound: "NCCCCCNC(=O)[C@H]1C[C@H]2C(=O)N3CCC[C@H]3C(=O)N2[C@H]1c1cccc(OCCO)c1"
  z-score: 0.294
